Target: RBP4 (Mus musculus, UniProt Q00724)
Construct: from tissue; host or cells: plasma of male C57BL/6J mice (Japan Charles River)
Test: Blood RBP4-lowering action in C57BL/6J mouse, plasma RBP4 by ELISA
Assay type: in vivo
Conditions: 10 mg/kg single oral dose, 8 hr, mean±SD, n=4 or 5
Procedure: The blood RBP4-lowering action of the compound of the present invention was evaluated using C57BL/6J mouse. […] The amount of RBP4 in the collected plasma was measured by the ELISA method. Using rabbit anti-mouse RBP4 polyclonal antibody (Hokudo Co., Ltd.), RBP4 was quantified by the following process. […] The reaction was quenched with 2N sulfuric acid and the absorbance at A450 nm was measured by a platereader. […]
experimental-readout: RBP4 (initial value/control value %) 8 hr later

Illustrative cases are given below, each with its answer.
- structure-as-smiles: "O=C(O)CCn1ccc(-c2cc(C(F)(F)F)cc(C(F)(F)F)c2)n1"
  system-name: "RBP4 (Mus musculus, UniProt Q00724)"
  reported-measurement: "20.70 ± 1.55%"
- structure-as-smiles: "O=C(O)COc1cnc(-c2cc(C(F)(F)F)cc(C(F)(F)F)c2)nc1"
  system-name: "RBP4 (Mus musculus, UniProt Q00724)"
  reported-measurement: "37.25 ± 11.45%"
- structure-as-smiles: "COC(=O)COc1ccc(-c2cc(C(F)(F)F)cc(C(F)(F)F)c2)nc1"
  system-name: "RBP4 (Mus musculus, UniProt Q00724)"
  reported-measurement: "43.66 ± 4.92%"

Provide the reported RBP4 (initial value/control value %) 8 hr later of each entry below, same order.
1. CCOC(=O)COc1cnc(-c2cc(C(F)(F)F)cc(C(F)(F)F)c2)nc1
2. O=C(O)COc1ccc(-c2cc(C(F)(F)F)cc(C(F)(F)F)c2)nc1

["58.17 ± 8.61%", "23.93 ± 5.84%"]

Data provenance: patent US10975043B2
